System: α7 integrin (LacZ reporter in α7βgal+/− myoblasts)
ASSAY_REMARKS: Myoblast α7+/LacZ integrin FDG assay (Burkin assay in myoblasts, 96-well)
Type: cell-based, mouse
EXPERIMENTAL_CONDITIONS: 20 uM; α7+/LacZ myoblasts, 96-well
Threshold 0.9. Burkin Assay in Myoblasts, value relative to DMSO below it: criterion met. Burkin Assay in Myoblasts, value relative to DMSO at it or above: criterion not met.

stdin: Does this molecule meet the criterion Burkin Assay in Myoblasts, value relative to DMSO < 0.9? CCOc1cc(/C=C2\C(=O)ON=C2c2ccccc2)ccc1OC [MLS001196946-01]
stdout: criterion met

stdin: Does this molecule meet the criterion Burkin Assay in Myoblasts, value relative to DMSO < 0.9? COc1ccccc1OCC(=O)Nc1cc2c(cc1C(=O)O)OCCCO2 [MLS001177045-01]
stdout: criterion not met

stdin: Does this molecule meet the criterion Burkin Assay in Myoblasts, value relative to DMSO < 0.9? C[C@H]1CNC(=O)c2c(C(=O)Nc3ccc(CNC(=O)OC(C)(C)C)cc3)ncn21 [MLS003126425-01]
stdout: criterion not met

stdin: Does this molecule meet the criterion Burkin Assay in Myoblasts, value relative to DMSO < 0.9? COCCN(CC(=O)Nc1cccc(C)c1C)C(=O)C1CCN(S(=O)(=O)c2ccccc2)CC1 [MLS002156278-01]
stdout: criterion met

stdin: Does this molecule meet the criterion Burkin Assay in Myoblasts, value relative to DMSO < 0.9? Cc1ccccc1C(=O)Nc1nnc(SC(C)C)s1 [MLS000683174-01]
stdout: criterion not met

###

Measured Burkin Assay in Myoblasts, signal relative to DMSO values are reported for all entries that follow.
Tested on: α7 integrin (LacZ reporter in α7βgal+/− myoblasts)
ASSAY_REMARKS: Myoblast α7+/LacZ integrin FDG assay (Burkin assay in myoblasts, 96-well)
Assay type: cell-based, mouse
EXPERIMENTAL_CONDITIONS: 0.5 uM; α7+/LacZ myoblasts, 96-well

In [3]: df
Out[3]:
                          molecule_smiles  result
0  Cc1cc2ccccc2n2c(SCC(=O)NCc3cccs3)nnc12  0.9747

stdin: Entry CC(=O)Nc1nonc1-c1nc2ccccc2n1CCC(C)C , system α7 integrin (LacZ reporter in α7βgal+/− myoblasts): what Burkin Assay in Myoblasts, signal relative to DMSO was measured?
stdout: 0.9927

stdin: Entry O=S(=O)(NC(=NC1CCCCC1)c1ccccc1F)c1ccccc1 , system α7 integrin (LacZ reporter in α7βgal+/− myoblasts): what Burkin Assay in Myoblasts, signal relative to DMSO was measured?
stdout: 1.024

###

Test system: α7 integrin (LacZ reporter in α7βgal+/− myoblasts)
ASSAY_REMARKS: Myoblast α7+/LacZ integrin FDG assay (Burkin assay in myoblasts, 96-well)
Format: cell-based, mouse
EXPERIMENTAL_CONDITIONS: 0.5 uM; α7+/LacZ myoblasts, 96-well
Threshold 1. Burkin Assay in Myoblasts, signal relative to DMSO below it: Y. Burkin Assay in Myoblasts, signal relative to DMSO at it or above: N.

In [3]: df
Out[3]:
                            molecule_smiles  class
0  COc1ccc(C)cc1NC(=O)c1ccc2c(O)c(S(=O)(=O)c3ccccc3)c(=O)[nH]c2c1      N
1  O=C(Cn1nc(-c2ccc(Cl)cc2)ccc1=O)N1CCC2(CC1)OCCO2      N
2  CCOC(=O)c1cc(C(=O)OCC)c(=O)[nH]c1SCc1ccccc1      Y
3        Cc1cc(C)nc(NC(=O)c2ccc(Cl)cc2Cl)n1      N
4           CSc1ccc(S(=O)(=O)NCc2ccccc2)cc1      Y
5      O=c1[nH]c2ccccc2nc1-c1c[nH]c2ccccc12      Y

stdin: Does this molecule meet the criterion Burkin Assay in Myoblasts, signal relative to DMSO < 1? O=C(Nc1cc(-c2nc3ccccc3s2)ccc1Cl)c1ccc2c(c1)OCO2
stdout: Y

stdin: Does this molecule meet the criterion Burkin Assay in Myoblasts, signal relative to DMSO < 1? Cc1ccccc1S(=O)(=O)N1C[C@H]2CON(C)[C@H]2C[C@H]1c1cccc(-c2ccccc2)c1
stdout: N
